# Tested on: U2OS
# measurement-description: Multiplex assay against U2OS
# Format: toxicity, cell-based
# test-parameters: human, 48 h, 10 µM, compound concentration 10 uM, replicate 1
Assign Population Pyknosed Nuclei (%) to each entry below.
Numbers only, in %.

Reference set, count: 4
O=C1N/C(=N/c2ccccc2F)S/C1=C\c1ccc(C(=O)O)cc1	5
CCOC(=O)c1c(C)[nH]c2ccc3c(c12)CN1CCc2cc(OC)ccc2C1O3 (stereo not given)	35
CN1CCN(C(=O)C(C)(C)c2ccc(C(=O)Nc3cn4cc(-c5ccncc5)ccc4n3)cc2)CC1	50
CCOc1cc(C(=O)N2CCC(N3CCN(C)CC3)CC2)ccc1Nc1ncc2c(n1)N(C1CCCC1)c1ccccc1C(=O)N2C	63

Proceeding to the next compound to report its Population Pyknosed Nuclei (%).
Ask | So what's the measured Population Pyknosed Nuclei (%) for this one? Cc1cc(C)c(S(=O)(=O)N(Cc2ccc(-c3cccc(S(C)(=O)=O)c3)cc2)Cc2ccc(C(F)(F)F)o2)c(C)c1
Reply | 18
